Assay overview: Inhibition of Trypanosoma brucei adenine phosphoribosyltransferase expressed in Escherichia coli measured by spectrophotometric method
Response field label takes MET when Ki is strictly below 5 µM and NOT MET in all other cases.

See these solved cases before continuing.
Nc1ncnc2c1ncn2C(COCP(=O)(O)O)OCCO (configuration not stated) = NOT MET
Nc1ncnc2c1ncn2[C@@H](CCOCP(=O)(O)O)OCCO = MET
Nc1ncnc2c1ncn2C(CCOCP(=O)(O)O)OCCCO (configuration not stated) = MET
CC[C@H](COCP(=O)(O)O)n1cnc2c(N)ncnc21 = MET
Nc1ncnc2c1ncn2[C@H](CO)COCP(=O)(O)O = NOT MET

Q. Please check: Ki for "Nc1ncnc2c1ncn2[C@H](COCc1ccccc1)COCP(=O)(O)O" , strictly under 5 µM or not?
A. NOT MET

Q. Now the same for "Nc1ncnc2c1ncn2[C@@H](COCP(=O)(O)O)C1CC1"
A. MET

Q. Now the same for COC(COCP(=O)(O)O)n1cnc2c(N)ncnc21 (configuration not stated)
A. NOT MET

Q. Now the same for Nc1ncnc2c1ncn2C(CO)COCP(=O)(O)O (configuration not stated)
A. NOT MET

Q. Now the same for "CCO[C@@H](COCP(=O)(O)O)n1cnc2c(N)ncnc21"
A. NOT MET

Q. Now the same for CC(COCP(=O)(O)O)n1cnc2c(N)ncnc21 (configuration not stated)
A. NOT MET

Q. Now the same for CCOC(COCP(=O)(O)O)n1cnc2c(N)ncnc21 (configuration not stated)
A. MET

Q. Now the same for "CC(C)[C@@H](COCP(=O)(O)O)n1cnc2c(N)ncnc21"
A. NOT MET

----------
Assay overview: Inhibition of Trypanosoma brucei adenine phosphoribosyltransferase expressed in Escherichia coli measured by spectrophotometric method
Response field label takes y when Ki is strictly below 6 µM and n in all other cases.

See these solved cases before continuing.
CO[C@@H](COCP(=O)(O)O)n1cnc2c(N)ncnc21 = n
CC(C)[C@H](COCP(=O)(O)O)n1cnc2c(N)ncnc21 = y
CCC(COCP(=O)(O)O)n1cnc2c(N)ncnc21 (centres undefined) = n
Nc1ncnc2c1ncn2C(COCCP(=O)(O)O)OCCO (centres undefined) = n
CO[C@H](COCP(=O)(O)O)n1cnc2c(N)ncnc21 = n

Q. Please check: Ki for "Nc1ncnc2c1ncn2[C@H](CCOCP(=O)(O)O)OCCO" , strictly under 6 µM or not?
A. n

Q. Now the same for Nc1ncnc2c1ncn2C(CCP(=O)(O)O)OCCO (centres undefined)
A. n

Q. Now the same for C#CC(COCP(=O)(O)O)n1cnc2c(N)ncnc21 (centres undefined)
A. n

Q. Now the same for Nc1ncnc2c1ncn2C(COCP(=O)(O)O)C(F)(F)F (centres undefined)
A. n

----------
# key: entry, value: Ki
Assay overview: Inhibition of Trypanosoma brucei adenine phosphoribosyltransferase expressed in Escherichia coli measured by spectrophotometric method
Provide only the numeric value, understood in µM.

Some molecules with known Ki results, for comparison:
C=CC(COCP(=O)(O)O)n1cnc2c(N)ncnc21 (stereo not given) = 16.3
Nc1ncnc2c1ncn2C(COCP(=O)(O)O)C1CC1 (stereo not given) = 5.84
Nc1ncnc2c1ncn2C(CCOCP(=O)(O)O)OCCO (stereo not given) = 4.9

Q. Fill in: Ki of "CCO[C@H](COCP(=O)(O)O)n1cnc2c(N)ncnc21" is ___
A. 2.39
